- test-protocol: NCI Yeast Anticancer Drug Screen. Data for the bub3 strain (AID 167)
- applied-conditions: S. cerevisiae bub3 mutant strain, at 5.0 µM (retest, dose inferred, filed as 0.5), stronger effect = higher value
This is part of a sample that, as a whole, favours compounds with a hit. Of some 79,000 tested, about 15% had one in any assay.
Readings of growth inhibition for the listed compounds

[
  {
    "compound": "CCOC(=O)C1=C(C)NC(C)=C(C(=O)OCC)C1c1ccc([N+](=O)[O-])s1",
    "growth inhibition (%)": 40
  },
  {
    "compound": "O=C(NCCCN1CCN(CCCNC(=O)c2cc(-c3ccccc3)nc3ccccc23)CC1)c1cc(-c2ccccc2)nc2ccccc12",
    "growth inhibition (%)": 30
  },
  {
    "compound": "COc1ccc2nc3cccc([N+](=O)[O-])c3c(NCCN(C)C)c2c1",
    "growth inhibition (%)": 36
  },
  {
    "compound": "Cc1cccc(C)c1N=Nc1c(C)nc(N)nc1-c1ccccc1",
    "growth inhibition (%)": -7
  },
  {
    "compound": "Cc1ccc2c(c1)NC(=O)C(N=[N+]=[N-])(c1ccccc1)C2=O (stereo not given)",
    "growth inhibition (%)": -7
  }
]

Source: PubChem BioAssay (NCI)
